Entries and their GI50 values follow.
- System: BT-549
- Protocol: NCI tumour cell line growth inhibition, 48 h
Calls of active or inactive are those of the source. No stated cut-off is given here; in the data, active = GI50 up to about 1.1 µM and inactive = higher.

Example cases with answers are listed next.
Compound	GI50
C1CSC2=C(S1)SC1=C(S2)SC(=C2SC3=C(SC4=C(SCCS4)S3)S2)S1	> 100 µM (inactive)
Cc1ccc(S(=O)(=O)N2CC2CCCCC=O)cc1 (stereo not given)	> 100 µM (inactive)
Nc1nc(N)c2nnn(C[C@H]3CC[C@@H](CO)C3)c2n1	> 100 µM (inactive)
COC(=O)c1cc(/C=C\c2cc(OC)ccc2OC)ccc1OC	31.2 µM (inactive)
COc1ccc(OC)c2c3c([nH]c12)C(=O)Nc1nc(N)nc(N)c1C3	> 100 µM (inactive)

Entry O=C(OCC1OC2OC(c3ccccc3)(n3ccc4c([N+](=O)[O-])ccnc43)OC2C1OC(=O)c1ccccc1)c1ccccc1 (stereo not given) : reported GI50 = ?
> 100 µM (inactive)

Entry "Cn1nnc2c3c(N(CCO)CCO)ccnc3ccc21" : reported GI50 = ?
> 100 µM (inactive)

Entry "CC(=O)O[C@H]1C[C@H](O[C@H]2[C@@H](O)C[C@H](O[C@H]3[C@@H](O)C[C@H](O[C@H]4CC[C@@]5(C)[C@H](CC[C@@H]6[C@@H]5CC[C@]5(O)[C@@H](C7=CC(=O)OC7)CC[C@]65O)C4)O[C@@H]3C)O[C@@H]2C)O[C@H](C)[C@H]1O[C@@H]1O[C@H](CO)[C@@H](O)[C@H](O)[C@H]1O" : reported GI50 = ?
0.304 µM (active)

Entry "CN(C)CCNC(=O)c1nc([N+](=O)[O-])cn1C" : reported GI50 = ?
> 100 µM (inactive)

Entry "NNS(=O)(=O)c1cc(C(=O)O)cc(C(=O)O)c1" : reported GI50 = ?
> 100 µM (inactive)

Entry COC(=O)C(CCSC)NC(=O)Cc1ccc(C(=O)c2ccccc2)cc1 (stereo not given) : reported GI50 = ?
29 µM (inactive)

Entry "CC1=CC(=O)/C(=C/NC(=S)C(N)=S)C(=O)O1" : reported GI50 = ?
> 100 µM (inactive)

Entry "CCOC(=O)c1ccc(-c2cc(C)[nH]n2)[nH]1" : reported GI50 = ?
> 100 µM (inactive)

Entry "C=C(C)COC(=O)COCC(=O)OCC(=C)C" : reported GI50 = ?
> 100 µM (inactive)

Entry "CCCCNc1nc2ccccc2c2c1ncn2CC(C)C" : reported GI50 = ?
> 100 µM (inactive)

These data points were gathered from ChEMBL document CHEMBL1201862.
